Reference for the values: PubChem BioAssay

# assay method text: endothelial E-selectin expression blockers – imaging, HUVEC, immunofluorescence, MLSMR starter and 10KST1 sets, primary screen (AID 487);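 also: signal is fraction of cell area covered by stained E-selectin grains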
# measurement parameters: HUVEC TNFalpha-induced E-selectin immunofluorescence imaging, at 2 µM; stronger effect = higher value
Values of inhibition greater than or equal to -50% map to yes; values below map to no.

Worked examples, 5 compounds total:
O=C(C1CCN(S(=O)(=O)N2CCC3(CC2)OCCO3)CC1)N1CCOCC1; yes
CSc1nnc2c3ccccc3n(CCc3ccccc3)c2n1; yes
FC(F)(F)COc1nc(N2CCCCC2)nc(N2CCNCC2)n1; yes
COc1ccc(-c2noc(CN3CCC(Cc4ccccc4)CC3)n2)cc1; no
Cn1c(=O)c2c(ncn2CC(O)CO)n(C)c1=O (configuration not stated); no

Record FC(F)(F)c1cc(-c2ccco2)nc(-n2nnc3ccccc32)n1 ; criterion: inhibition no lower than -50%. Met?
yes

Record CCC1=Nc2ccccc2NC2=C1C(=O)CCC2 ; criterion: inhibition no lower than -50%. Met?
no

Record COc1cc(C)nc(Oc2ccc(=O)[nH]n2)n1 ; criterion: inhibition no lower than -50%. Met?
yes

Record CCCCOC(=O)Nc1nc2ccc(OC)cc2s1 ; criterion: inhibition no lower than -50%. Met?
yes

Record CN1[C@@H]2CC(OC(=O)[C@H](CO)c3ccccc3)C[C@H]1[C@@H]1O[C@@H]12 (some centres not stated) ; criterion: inhibition no lower than -50%. Met?
no

Record O=C(OCC(=O)c1c[nH]c2ccccc12)C1=COCCO1 ; criterion: inhibition no lower than -50%. Met?
yes

----------
# assay method text: reduction of polyQ htt aggregates in cells – imaging, exon1htt(103Q)mCFP cells, high-content imaging, primary screen (AID 483);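 also: compound exposure lasted 3 days before fixation; percent of the per-plate median nuclei count of sample wells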
# measurement parameters: exon1htt(103Q)mCFP cell line, aggregate imaging, at 2 µM; measured here: cell count, toxicity
measurement name: nuclei count (%)
Report the value in % with no unit label.

Reference set, count: 5
Cc1noc(C)c1C(=O)Nc1sc(C)c(C)c1C#N; 87.5
COc1ccc(CNC(=O)c2cc(-c3ccc(OC)c(OC)c3)on2)cc1; 104
Cc1ccc(-n2nnnc2SCC(=O)N2CCc3ccccc3C2)cc1; 104
COc1cc(C2Nc3cccc4cccc(c34)N2)cc(OC)c1O; 91.5
Cc1ccc(S(=O)(=O)N2CCC(C(=O)N[C@@H](Cc3ccccc3)C(=O)O)CC2)cc1; 99.8

Report measured nuclei count; entry is N#CCSc1nc2c(c(C3CC=CCC3)c1C#N)CCC2 (stereo unspecified)
100

----------
# assay method text: blockers of RIG-like receptor reporter activation – cell-based, Sendai virus stimulus, luciferase, 10K MLSCN set, TLR/RLR signaling modifier project, primary screen (AID 602276);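 also: firefly luciferase from ISG56 promoter only with Renilla not read in this screen; 0% = Sendai virus plus DMSO and 100% = medium plus DMSO without virus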
# measurement parameters: HEK293 RL24 IRF3 luciferase reporter, at 10 µM, stronger effect = higher value
measurement name: inhibition (%)
Report the value in % with no unit label.

Reference set, count: 6
Cc1ccccc1NC(=O)c1ccccc1; 1.39
COc1cccc(-c2cc(C(=O)Nc3c(C)nn(Cc4ccccc4)c3C)no2)c1; 0.514
COC(=O)Nc1nc2ccc(C(=O)c3ccccc3)cc2[nH]1; 17.6
c1ccc(CC2CCN(Cc3nc(-c4ccccc4)no3)CC2)cc1; 5.55
CC(C)(C)NC[C@H](O)COc1nsnc1N1CCOCC1; 6.87
COc1ccc(N2CCN(C(=O)CSc3nnc(Cn4nnc5ccccc54)n3C)CC2)cc1; -9.14

Report measured inhibition; entry is CCOC(=O)c1sc(NC(=O)CSc2nc3c(cc2C#N)CCC3)c(C#N)c1C
18.5

Report measured inhibition; entry is COc1cccc(C(=O)Nc2ccc(N(C)C)cc2)c1OC
-4.94

Report measured inhibition; entry is O=c1cc(COn2nnc3ccc(C(F)(F)F)cc32)nc2sccn12
-2.54

Report measured inhibition; entry is Cc1noc(C)c1C(=O)OCC(=O)Nc1ccccc1C(=O)NC(C)c1ccccc1 (stereo unspecified)
9.57

Report measured inhibition; entry is O=C1NC(c2ccccc2)(C(F)(F)F)SC2=NCCCN12 (stereo unspecified)
-6.22

----------
# assay method text: reduction of polyQ htt aggregates in cells – imaging, exon1htt(103Q)mCFP cells, high-content imaging, primary screen (AID 483);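 also: compound exposure lasted 3 days before fixation; percent of the per-plate median nuclei count of sample wells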
# measurement parameters: exon1htt(103Q)mCFP cell line, aggregate imaging, at 2 µM; measured here: cell count, toxicity
The following compounds are listed with their measured nuclei count values.
Give the value; after it, write the unit.

Reference set, count: 5
CCOc1ccccc1Nc1ncnc2ccccc12; 93.2%
CN1C(=O)C2(NCCc3c2[nH]c2ccccc32)c2ccccc21 (stereo unspecified); 99.3%
CC(Oc1ccc2oc(-c3ccccc3)c(C(=O)O)c2c1)C(=O)O (stereo unspecified); 104%
Cc1ccc(CNC(=O)CCCn2c(=O)c3ccccc3n(CC(=O)NCc3ccco3)c2=O)cc1; 114%
CCN(CC)S(=O)(=O)c1ccc2oc(C(=O)O)c(C)c2c1; 85.6%

Report measured nuclei count; entry is CC(C(=O)N1CCOCC1)N1c2cccc3cccc(c23)S1(=O)=O (stereo unspecified)
109%

Report measured nuclei count; entry is O=C(NCCO)c1scc2c1OCCO2
97.2%

Report measured nuclei count; entry is Cc1sc2ncnc(OCC(=O)N3CCN(S(=O)(=O)c4ccc(Cl)cc4)CC3)c2c1C
122%

Report measured nuclei count; entry is CCSc1nc(C)nc2c1oc1ccccc12
96.3%

Report measured nuclei count; entry is CCC(C)OC(=O)n1ccc(C(=O)Nc2nccs2)n1 (stereo unspecified)
95%

Report measured nuclei count; entry is CCOC(=O)N1CCC(NC(=O)CCc2c(C)nc3c(c(C)nn3C(C)(C)C)c2C)CC1
138%

----------
# assay method text: blockers of RIG-like receptor reporter activation – cell-based, Sendai virus stimulus, luciferase, 10K MLSCN set, TLR/RLR signaling modifier project, primary screen (AID 602276);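 also: firefly luciferase from ISG56 promoter only with Renilla not read in this screen; 0% = Sendai virus plus DMSO and 100% = medium plus DMSO without virus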
# measurement parameters: HEK293 RL24 IRF3 luciferase reporter, at 10 µM, stronger effect = higher value
measurement name: inhibition (%)
Report the value in % with no unit label.

Report measured inhibition; entry is Cc1ccc(C(=O)CSc2nnc(CNc3ccc(C)cc3C)o2)cc1
6.54

Report measured inhibition; entry is CCOC(=O)c1[nH]c(C)c(C(=O)Nc2cc(OC)ccc2OC)c1C
30.4

Report measured inhibition; entry is COc1ccc2c(c1)c1c(n2C(C)=O)C(OC(C)=O)=NCC1
13.2

Report measured inhibition; entry is CCCCCCNC(=O)Cc1c(O)c2ccccc2[nH]c1=O
9.96

----------
The following molecules are listed with their measured inhibition values.
# assay method text: blockers of RIG-like receptor reporter activation – cell-based, Sendai virus stimulus, luciferase, 10K MLSCN set, TLR/RLR signaling modifier project, primary screen (AID 602276);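 also: firefly luciferase from ISG56 promoter only with Renilla not read in this screen; 0% = Sendai virus plus DMSO and 100% = medium plus DMSO without virus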
# measurement parameters: HEK293 RL24 IRF3 luciferase reporter, at 10 µM, stronger effect = higher value
Report the value in % with no unit label.

Reference set, count: 3
CC(C(=O)NC1CCCCCC1)N(c1ccccc1)S(C)(=O)=O (stereo not drawn); 15.7
Cn1nnnc1SCC(=O)Nc1ccccc1C(=O)NCc1ccccc1; -6.6
Cc1ccccc1OCCN1C(=O)NC2(CCc3ccccc32)C1=O (stereo not drawn); 12

Report measured inhibition; entry is Cc1nc2nc(SCC(=O)NCc3ccco3)nn2c(C)c1Cc1ccccc1
-7.73

Report measured inhibition; entry is CCCn1nnnc1SCC(=O)c1ccc2c(c1)OCCO2
-31.3

Report measured inhibition; entry is O=C(Cn1nnc(-c2cccc(C(F)(F)F)c2)n1)NC(=O)NCc1ccco1
-0.353

Report measured inhibition; entry is Cc1cc(C(=O)N2CCN(C(c3ccccc3)c3ccccc3)CC2)no1
14.8

Report measured inhibition; entry is C/C(Cl)=C\Cn1c(NCCc2ccccc2)nc2c1c(=O)n(C)c(=O)n2C
12.1

Report measured inhibition; entry is O=C(Nc1ccc(F)cc1)c1cccc2c1C(=O)N(Cc1ccccn1)C2
0.0917

Report measured inhibition; entry is CCOC(=O)c1ccc(Oc2nc(NC)nc(OC)n2)cc1
-7.27

Report measured inhibition; entry is O=C(Nc1cccc(C(=O)N2CCOCC2)c1)c1cccnc1
-1.23

Report measured inhibition; entry is CCC(C)OC(=O)n1ccc(C(=O)Nc2nccs2)n1 (stereo not drawn)
-5.02

Report measured inhibition; entry is CCn1cc(C(=O)NCCN(C)CCc2ccccc2)c(=O)c2cc(S(=O)(=O)N(C)C)ccc21
14

Report measured inhibition; entry is c1ccc2c(c1)Cn1c-2nc2ccccc21
-36.1

Report measured inhibition; entry is CC(C)CCNC(=O)NC(=O)CSc1nnc(-c2ccccc2F)n1N
-9.04

Report measured inhibition; entry is O=C1NC(=O)C2(CCC(C(=O)O)C2)N1 (stereo not drawn)
13.2

Report measured inhibition; entry is CCc1ccc(NS(=O)(=O)c2ccc3[nH]cc(C(=O)N4CCCCC4)c(=O)c3c2)cc1
20.2

Report measured inhibition; entry is Cn1cc(C(=O)NC2CCCCCCC2)c(=O)c2cc(S(=O)(=O)N3CCCC3)ccc21
10.2
